Target: T1, human interleukin 13 receptor subunit alpha 2 (IL-13RA2) (human, UniProt Q14627 27-380)
T1 construct: whole, on cells; also called IL-13Rα2; CD213A2
T1 sequence (looked up): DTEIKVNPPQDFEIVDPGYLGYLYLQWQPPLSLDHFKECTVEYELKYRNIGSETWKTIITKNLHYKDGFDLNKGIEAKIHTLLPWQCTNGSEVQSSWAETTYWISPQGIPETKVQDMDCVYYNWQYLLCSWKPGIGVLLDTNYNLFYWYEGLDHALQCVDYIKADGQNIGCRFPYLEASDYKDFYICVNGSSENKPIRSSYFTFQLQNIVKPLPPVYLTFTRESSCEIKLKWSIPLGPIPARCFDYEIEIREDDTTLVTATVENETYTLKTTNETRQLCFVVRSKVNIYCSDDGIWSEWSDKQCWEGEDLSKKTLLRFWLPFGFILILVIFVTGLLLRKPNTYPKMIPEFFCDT
Experiment: FACS on A375 cells
EXPERIMENTAL READOUT: pEC50
Worth noting: pEC50 values are minus log10 of concentrations stated in mol/L.

Exam item: Indicate the recorded pEC50 value for this binder: 61H8C1 H3L1 hIgG1 (antibody, V domains shown, humanized, hIgG1) VH: QVQLVQSGAEVAKPGASVKVSCKASGYTFTSYWTQWIRQAPGQGLEGIGAIYPGDDDTSYNQKFKGRATLTADKSTSTVYMQLSSLRSEDTAVYYCARGATLLRPFPYWGQGTLVTVSS VL: DIQMTQSPSSLSASVGDRVTITCKASQDVSTAVAWYQQKPGKAPKLLIYSASYRYTGVPSRFSGSGSGTDFTLTISSLQPEDFATYYCQQHYSIPPTFGQGTKLEIK
Marked response: 9.82

Exam item: Indicate the recorded pEC50 value for this binder: 57F8H3F1 H3L3 hIgG1 (antibody, V domains shown, humanized, hIgG1) VH: QVQLVQSGAEVVKPGASVKLSCKASGYTFTNYWMNWVKQAPGQGLEWIGRIDAYETETHYNQKFRDRATLTVDKSTSTVYMELSSLRSEDTAVYYCARGYGHYYGVDYWGQGTLVTVSS VL: DIQLTQSPSSLSASVGDRVTITCRASENVGNFGISFVNWFQQKPGKAPKLLIYAASNLGSGDPARFSGSGSGTDFTLTISSLQPEDFATYFCQQSKGVPWTFGGGTKVEIK
Marked response: 8.79

Exam item: Indicate the recorded pEC50 value for this binder: 73A11E2 H2L2 hIgG1 (antibody, V domains shown, humanized, hIgG1) VH: QVQLVQSGAEVVKPGASVKVSCKASGFTFSSYGMSWVRQAPGQGLEWVGTISGGGSYTYYPESVKGRFTITRDTSTSTAYMELRSLRSDDTAVYYCARRDLRSAMDYWGQGTLVTVSS VL: DIVMTQSPLSLPVTLGQPASISCKASQNVDINVAWYQQRPGQSPRALIYSASYRYSGVPDRFSGSGSGTDFTLKISRVEAEDVGVFYCQQYNAYPLTFGQGTKLEIK
Marked response: 9.17

Exam item: Indicate the recorded pEC50 value for this binder: 72B4H4 H2L3 hIgG1 (antibody, V domains shown, humanized, hIgG1) VH: QVQLVQSGAEVVKPGASVKVSCKASGYTFTNYWMNWVRQAPGQGLEWIGRIDAYAGETHYNQKFKDRVTMTVDTSTSTVYMELSSLRSEDTAVYYCARGYGDAYGMDHWGQGTLVTVSS VL: DIQLTQSPSSLSASVGDRVTITCRASESVDNYGISFMNWFQQKPGKAPKLLIYAASRQGSGDPARFSGSGSGTDFTLTISSLQPEDFATYFCQQSKEVPWTFGGGTKVEIK
Marked response: 9.08

Exam item: Indicate the recorded pEC50 value for this binder: 72B4H4 H4L1 hIgG1 (antibody, V domains shown, humanized, hIgG1) VH: QVQLVQSGAEVVKPGASVKLSCKASGYTFTNYWMNWVKQRPGQGLEWIGRIDAYAGETHYNQKFKDRAILTVDKSTSTAYMELRSLRSEDTAVYYCARGYGDAYGMDHWGQGTLVTVSS VL: DIQMTQSPSSLSASVGDRVTITCRASESVDNYGISFMNWYQQKPGKAPKLLIYAASRQGSGVPSRFSGSGSGTDFTLTISSLQPEDFATYYCQQSKEVPWTFGQGTKVEIK
Marked response: 9.26

Exam item: Indicate the recorded pEC50 value for this binder: 61H8C1 H1L4 hIgG1 (antibody, V domains shown, humanized, hIgG1) VH: QVQLVQSGAEVKKPGASVKVSCKASGYTFTSYWTQWVRQAPGQGLEWMGAIYPGDDDTSYNQKFKGRVTMTRDTSTSTVYMELSSLRSEDTAVYYCARGATLLRPFPYWGQGTLVTVSS VL: DIVMTQSPSSLSTSVGDRVTITCKASQDVSTAVAWYQQKPGKSPKLLIYSASYRYTGVPDRFTGSGSGTDFTFTISSVQPEDFATYSCQQHYSIPPTFGGGTKLEIK
Marked response: 9.77

Exam item: Indicate the recorded pEC50 value for this binder: 57F8H3F1 H4L4 hIgG1 (antibody, V domains shown, humanized, hIgG1) VH: QVQLVQSGAEVVKPGASVKLSCKASGYTFTNYWMNWVKQRPGQGLEWIGRIDAYETETHYNQKFRDRAILTVDKSTSTAYMELRSLRSEDTAVYYCARGYGHYYGVDYWGQGTLVTVSS VL: DIVLTQSPSSLSASVGDRATITCRASENVGNFGISFVNWFQQKPGKPPKLLIYAASNLGSGDPARFSGSGSGTDFTLTISSLQPEDFATYFCQQSKGVPWTFGGGTKLEIK
Marked response: 9.04

Exam item: Indicate the recorded pEC50 value for this binder: 72B4H4 H4L3 hIgG1 (antibody, V domains shown, humanized, hIgG1) VH: QVQLVQSGAEVVKPGASVKLSCKASGYTFTNYWMNWVKQRPGQGLEWIGRIDAYAGETHYNQKFKDRAILTVDKSTSTAYMELRSLRSEDTAVYYCARGYGDAYGMDHWGQGTLVTVSS VL: DIQLTQSPSSLSASVGDRVTITCRASESVDNYGISFMNWFQQKPGKAPKLLIYAASRQGSGDPARFSGSGSGTDFTLTISSLQPEDFATYFCQQSKEVPWTFGGGTKVEIK
Marked response: 9.09

Exam item: Indicate the recorded pEC50 value for this binder: 57F8H3F1 H4L1 hIgG1 (antibody, V domains shown, humanized, hIgG1) VH: QVQLVQSGAEVVKPGASVKLSCKASGYTFTNYWMNWVKQRPGQGLEWIGRIDAYETETHYNQKFRDRAILTVDKSTSTAYMELRSLRSEDTAVYYCARGYGHYYGVDYWGQGTLVTVSS VL: DIQMTQSPSSLSASVGDRVTITCRASENVGNFGISFVNWYQQKPGKAPKLLIYAASNLGSGVPSRFSGSGSGTDFTLTISSLQPEDFATYYCQQSKGVPWTFGQGTKVEIK
Marked response: 9.38

Exam item: Indicate the recorded pEC50 value for this binder: 72B4H4 H2L4 hIgG1 (antibody, V domains shown, humanized, hIgG1) VH: QVQLVQSGAEVVKPGASVKVSCKASGYTFTNYWMNWVRQAPGQGLEWIGRIDAYAGETHYNQKFKDRVTMTVDTSTSTVYMELSSLRSEDTAVYYCARGYGDAYGMDHWGQGTLVTVSS VL: DIVLTQSPSSLSASVGDRATITCRASESVDNYGISFMNWFQQKPGKPPKLLIYAASRQGSGDPARFSGSGSGTDFTLTISSLQPEDFATYFCQQSKEVPWTFGGGTKLEIK
Marked response: 8.93
